# MEASURED_ON: hT1R2/hT1R3 sweet receptor (Homo sapiens, UniProt Q7RTX0+Q8TE23)
# Construct: expressed in transfected cells; host or cells: HEK293 derivative stably expressing Gα15, clone S-9
# Sequence (Q8TE23 20-839): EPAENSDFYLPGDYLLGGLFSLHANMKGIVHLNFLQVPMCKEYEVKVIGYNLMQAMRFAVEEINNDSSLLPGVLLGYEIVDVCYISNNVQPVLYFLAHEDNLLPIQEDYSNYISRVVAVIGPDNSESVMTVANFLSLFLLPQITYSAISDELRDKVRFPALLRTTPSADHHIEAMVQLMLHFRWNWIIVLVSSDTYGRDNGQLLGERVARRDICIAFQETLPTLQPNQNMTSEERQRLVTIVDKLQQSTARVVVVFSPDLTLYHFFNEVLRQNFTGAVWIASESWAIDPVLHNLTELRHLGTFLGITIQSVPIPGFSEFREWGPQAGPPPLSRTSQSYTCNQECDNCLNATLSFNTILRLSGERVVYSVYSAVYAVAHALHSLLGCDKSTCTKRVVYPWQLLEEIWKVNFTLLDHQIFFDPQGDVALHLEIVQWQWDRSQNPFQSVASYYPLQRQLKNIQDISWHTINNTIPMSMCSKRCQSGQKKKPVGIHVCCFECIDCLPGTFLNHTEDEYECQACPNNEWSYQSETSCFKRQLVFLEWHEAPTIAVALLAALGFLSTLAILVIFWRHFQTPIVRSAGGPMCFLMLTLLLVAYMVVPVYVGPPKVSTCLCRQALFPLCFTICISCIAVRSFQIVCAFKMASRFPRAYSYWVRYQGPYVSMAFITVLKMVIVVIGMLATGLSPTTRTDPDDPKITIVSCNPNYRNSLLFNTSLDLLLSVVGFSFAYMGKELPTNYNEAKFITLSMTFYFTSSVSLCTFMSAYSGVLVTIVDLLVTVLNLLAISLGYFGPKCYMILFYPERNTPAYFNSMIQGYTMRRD
# Sequence (Q7RTX0 21-852): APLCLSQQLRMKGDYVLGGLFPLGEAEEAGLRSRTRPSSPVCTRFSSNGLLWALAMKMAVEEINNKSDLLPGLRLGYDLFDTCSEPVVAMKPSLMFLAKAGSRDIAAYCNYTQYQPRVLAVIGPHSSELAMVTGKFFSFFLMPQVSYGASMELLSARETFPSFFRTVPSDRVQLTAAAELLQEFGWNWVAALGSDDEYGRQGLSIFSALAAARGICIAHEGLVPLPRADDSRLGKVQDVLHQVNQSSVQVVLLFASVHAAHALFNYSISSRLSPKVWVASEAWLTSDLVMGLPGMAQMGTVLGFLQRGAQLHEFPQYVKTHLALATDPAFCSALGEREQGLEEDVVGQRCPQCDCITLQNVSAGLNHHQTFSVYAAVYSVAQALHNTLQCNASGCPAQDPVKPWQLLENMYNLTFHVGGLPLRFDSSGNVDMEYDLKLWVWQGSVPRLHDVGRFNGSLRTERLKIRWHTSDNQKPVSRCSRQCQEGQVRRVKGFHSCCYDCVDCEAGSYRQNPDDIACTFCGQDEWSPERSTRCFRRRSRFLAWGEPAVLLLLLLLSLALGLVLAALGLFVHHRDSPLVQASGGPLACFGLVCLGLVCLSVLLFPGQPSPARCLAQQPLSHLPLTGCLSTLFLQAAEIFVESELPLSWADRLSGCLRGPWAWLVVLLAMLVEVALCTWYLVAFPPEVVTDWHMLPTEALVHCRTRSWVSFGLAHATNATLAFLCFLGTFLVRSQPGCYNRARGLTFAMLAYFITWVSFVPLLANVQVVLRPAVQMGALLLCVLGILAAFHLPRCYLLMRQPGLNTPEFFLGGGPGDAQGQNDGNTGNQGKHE
# ASSAY_NAME: In vitro hT1R2/hT1R3 sweet taste receptor activation assay (FLIPR, dose response)
# Type: cell-based
# MEASUREMENT_CONTEXT: read-out: EC50 for activation of a hT1R2/hT1R3 sweet receptor expressed in an HEK293 cell line
pEC50: −log10 of the molar value.
Quick rule: pEC50 of at least 6 means label 1, below that means label 0.

Q) Exam item: decide whether the reported pEC50 for `COc1cccc2c1CCC[C@H]2NC(=O)c1cccc(Cl)c1O` is at least 6.
A) label 1

Q) Try this molecule next: `Cc1c(F)c(F)c(C(=O)NC2CCCCCC2)c(F)c1F`
A) label 0

Q) What about `CCCCc1nocc1C(=O)N[C@@H]1CCCc2c(OC)cccc21` ?
A) label 1

Q) What do we get for COc1cccc2c1CCCC2NC(=O)c1cccc(Cl)c1O (stereo not shown) ?
A) label 1

Q) Repeat with COc1cccc2c1CCC(C)C2NC(=O)c1cccc(Cl)c1O (stereo not shown)
A) label 1

Q) Try this molecule too: COc1cc(C)c(C(=O)NC2CCCCC2C)c(C)c1 (stereo not shown)
A) label 0

Q) // same read-out, input: `Cc1cccc2c1CN(C(=O)Nc1c(F)cc(Br)cc1F)C2`
A) label 1

Q) What do you get for `CCCc1c(F)c(F)c(C(=O)N[C@@H](C)C(C)C)c(F)c1F` ?
A) label 1

Q) Please do the same for Cc1c(F)c(F)c(C(=O)NC2CCCCC2C)c(F)c1F (stereo not shown) as well.
A) label 1

Q) What do we get for `COc1ccc(NC(=O)N2Cc3ccccc3C2)c(C)c1` ?
A) label 0

Q) Let us now turn to `O=C(N[C@@H]1CCCc2ccccc21)c1ccoc1`
A) label 0

Q) Record: `C=CCc1c(F)c(F)c(C(=O)N[C@@H](C)C(C)C)c(F)c1F`
A) label 1

Q) How about this molecule: `Cc1nocc1C(=O)N[C@@H]1CCCc2ccccc21`
A) label 0

Q) Now the same for `Cc1cc(C)c2c(c1)[C@H](NC(=O)c1conc1C)CCC2`
A) label 1

Q) // next record Cc1cccc(C)c1C(=O)NC1CCCCC1C (stereo not shown)
A) label 0

Q) Now consider CC1CCc2ccccc2C1NC(=O)c1cccc(Cl)c1O (stereo not shown) and answer again.
A) label 1

Q) Same read-out for `Cc1ccc2c(c1)CN(C(=O)Nc1c(F)cc(Br)cc1F)C2` ?
A) label 1

Q) Same for `CCCc1nocc1C(=O)N[C@@H]1CCCc2c(OC)cccc21`
A) label 1

Q) Next molecule: `CCc1nocc1C(=O)N[C@@H]1CCCc2c(OC)cccc21`
A) label 1

Q) Do the same for `O=C(Nc1c(F)cc(Br)cc1F)N1Cc2ccc(Br)cc2C1` please
A) label 1

Q) What would you report for `COc1ccc2c(c1)[C@H](NC(=O)c1cccc(Cl)c1O)CCC2` ?
A) label 1

Q) Also need `COc1cc(F)c(NC(=O)N2Cc3cccc(C)c3C2)c(F)c1` , thanks.
A) label 1

Q) Could you do the same for `Cc1c(F)c(F)c(C(=O)N[C@@H](C)C(C)C)c(F)c1F` , please?
A) label 1

Q) // same read-out, input: `Cc1cc(F)c(NC(=O)N2Cc3cccc(C)c3C2)c(F)c1`
A) label 1

Q) // same read-out, input: `Cc1cccc2c1CCC[C@H]2NC(=O)c1conc1C`
A) label 0

Q) Please do the same for CCOc1cccc2c1CCCC2NC(=O)c1conc1C (stereo not shown) as well.
A) label 0
